# experimental.system: human P2X7 channel (Homo sapiens, UniProt Q99572)
# Construct: expressed in transfected cells; host or cells: HEK-293
# Sequence (Q99572 whole entry): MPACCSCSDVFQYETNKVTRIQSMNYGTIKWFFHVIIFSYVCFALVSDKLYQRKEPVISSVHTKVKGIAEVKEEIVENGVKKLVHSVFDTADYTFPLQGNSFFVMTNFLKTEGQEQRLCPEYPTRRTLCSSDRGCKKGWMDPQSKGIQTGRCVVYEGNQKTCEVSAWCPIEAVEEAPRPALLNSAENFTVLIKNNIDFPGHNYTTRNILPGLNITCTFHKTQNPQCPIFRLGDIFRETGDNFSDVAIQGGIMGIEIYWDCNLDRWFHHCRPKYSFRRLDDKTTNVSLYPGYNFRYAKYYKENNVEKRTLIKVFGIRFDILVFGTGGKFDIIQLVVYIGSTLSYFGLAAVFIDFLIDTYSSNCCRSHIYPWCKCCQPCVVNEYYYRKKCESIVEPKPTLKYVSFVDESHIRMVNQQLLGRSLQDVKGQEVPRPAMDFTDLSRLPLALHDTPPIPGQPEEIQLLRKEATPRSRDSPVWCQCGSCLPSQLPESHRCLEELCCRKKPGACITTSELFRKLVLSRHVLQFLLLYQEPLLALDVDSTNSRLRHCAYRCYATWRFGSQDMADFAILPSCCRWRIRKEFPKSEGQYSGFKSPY
# protocol.description: human P2X7 channel assay by automated patch-clamp (QPatch 16X)
# Assay type: cell-based
# test.parameters: HEK-293 cells expressing P2X7; current evoked by 100 microM BzATP; whole-cell, held at -80 mV; read-out: human Q-Patch (activity range)
Below, each entry is listed alongside its reported IC50.

Below, each entry is followed by its recorded IC50 result.
In [3]: df
Out[3]:
                          compound_string  measured_quantity  measured_value
0   Cn1nc(Cc2c(F)cccc2Cl)n(CC2CCCCC2)c1=O               IC50       < 0.01 µM
1  Cn1nc(Cc2ccc(F)cc2Cl)n(CC2CCCCCC2)c1=O               IC50  0.01 to 0.1 µM

# input Find the recorded IC50 belonging to O=c1n(CC(F)(F)F)nc(Cc2c(F)cccc2Cl)n1CC1CCC(F)(F)CC1 and report it.
# output < 0.01 µM

# input What measured IC50 goes with Cc1ncccc1Cn1c(CC2CCCCC2)nn(C)c1=O ?
# output 0.1 to 1 µM

====

The following molecules are listed with their measured pIC50 values.
# experimental.system: UniProt Q99572
# protocol.description: P2X7 channel calcium-influx assay (Fluo-8, FLIPR TETRA), human P2X7
# test.parameters: HEK-293 cells stably transfected with P2X7; Bz-ATP at EC80; low divalent cation buffer; read-out: humanP2X7 (activity range)
pIC50: −log10 of the molar value.

In [3]: df
Out[3]:
                                   molecule  measured_value
0  Cn1nc(Cc2ccccc2Cl)n(CC2CCC(F)(F)CC2)c1=O          > 6.70
1  Cn1nc(Cc2ccccc2C(F)(F)F)n(CC2CCCCC2(C)C)c1=O (stereo not drawn)    6.00 to 6.70
2    Cn1nc(Cc2c(F)cccc2Cl)n(CC2CCCCCC2)c1=O          > 6.70
3  Cn1nc(Cc2c(F)cccc2Cl)n(CC2CCC(F)(F)CC2)c1=O          > 6.70
4  Cn1nc(Cc2ccccc2C(F)(F)F)n(CC2CCCCC2)c1=O    6.00 to 6.70

# input Look up pIC50 for this molecule: Cn1nc(CC2CCCCC2)n(Cc2c(F)cccc2Cl)c1=O
# output 6.00 to 6.70

# input Any idea what its pIC50 is? The molecule is Cn1nc(Cc2c(F)cccc2Cl)n(CC2CCC3(CC2)CC3)c1=O
# output > 6.70

# input What value of pIC50 has been recorded for this entry: Cn1nc(Cc2ccccc2F)n(CC2CCC3(CC2)CC3)c1=O
# output 6.00 to 6.70

# input Quick one: pIC50 of Cn1nc(Cc2ccc(F)cc2Cl)n(CC2CCCCC2)c1=O ?
# output 6.00 to 6.70

# input Quick one: pIC50 of CCn1nc(Cc2c(F)cccc2Cl)n(CC2CCC(F)(F)C2)c1=O (stereo not drawn) ?
# output 5.00 to 6.00

# input Suppose we examine the molecule Cn1nc(Cc2c(F)cccc2Cl)n(CCN2CCOCC2(C)C)c1=O ; what pIC50 value has been reported?
# output 5.00 to 6.00

# input Requested read-out: pIC50. Entry: Cn1nc(Cc2ccc(F)cc2Cl)n(CC2CCC3(CC2)CC3)c1=O
# output 6.00 to 6.70
